TARGET_OF_ASSAY: PD-1 (human, UniProt Q15116 25-167, limits assumed)
Sequence (Q15116 25-167 limits assumed): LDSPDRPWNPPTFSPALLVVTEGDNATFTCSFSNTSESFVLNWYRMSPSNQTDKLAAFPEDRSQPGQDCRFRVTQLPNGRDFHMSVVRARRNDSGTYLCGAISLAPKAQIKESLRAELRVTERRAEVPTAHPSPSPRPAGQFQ
ASSAY_DETAILS: HTRF
MEASURE_NAME: PD1 Binding (HTRF signal)
No unit in the answer, please; the number alone is enough.

What value of PD1 Binding (HTRF signal) has been recorded for this entry: PD1-IL2-R02-C03 (scFv, cell-free expressed, V5-tagged) scFv: QVQLVQSGAEVKKPGASVKVSCKASGYTFPRYHIHWVRQAPGQGLEWMGMINPSGGTTTYAQKFQGRVTMTRDTSTSTVYMELSSLRSEDTAVYYCARDTGLGYYYGSGDFDYWGQGTLVTVSSASGGGGSGGGGSGGGGSHASDIQMTQSPSSLSASVGDRVTITCRASQSISSWLAWYQQKPGKAPKLLIYAASSLQSGVPSRFSGSGSGTDFTLTISSLQPEDFATYYCQQSHSFPLTFGGGTKVEIK 1380

Query: PD1 Binding (HTRF signal); subject: PD1-IL2-R02-B07 (scFv) scFv: QVQLVQSGAEVKKPGASVKVSCKASGDTFTRHYVHWVRQAPGQGLEWMGIINPSGGYASYAQKFQGRVTMTRDTSTSTVYMELSSLRSEDTAVYYCAAGLFIWGQGTLVTVSSASGGGGSGGGGSGGGGSHASDIQMTQSPSSLSASVGDRVTITCRASQSIGRWLAWYQQKPGKAPKLLIYSASNLETGVPSRFSGSGSGTDFTLTISSLQPEDFATYYCQQANSFPVTFGPGTKVDIK 1680

Query: PD1 Binding (HTRF signal); subject: PD1-IL2-R07-A09 (scFv, cell-free expressed, V5-tagged) scFv: QVQLVQSGAEVKKPGASVKVSCKASGYTFTSYYMHWVRQAPGQGLEWMGIINPSDGSTTYAQSFQGRVTMTRDTSTSTVYMELSSLRSEDTAVYYCASGWDVWGQGTLVTVSSASGGGGSGGGGSGGGGSHASDIVMTQSPDSLAVSLGERATINCKSSQSVFSSANNKNYLAWYQQKPGQPPKLLIYWASTRESGVPDRFSGSGSGTDFTLTISSLQAEDVAVYYCQQYFGTPVTFGGGTKVEIK 1240
